Form field: Kd (one value per entry).
Molecular target: T1, PUF4 RNA-binding domain (Saccharomyces cerevisiae, UniProt P25339 537-888)
T1 sequence: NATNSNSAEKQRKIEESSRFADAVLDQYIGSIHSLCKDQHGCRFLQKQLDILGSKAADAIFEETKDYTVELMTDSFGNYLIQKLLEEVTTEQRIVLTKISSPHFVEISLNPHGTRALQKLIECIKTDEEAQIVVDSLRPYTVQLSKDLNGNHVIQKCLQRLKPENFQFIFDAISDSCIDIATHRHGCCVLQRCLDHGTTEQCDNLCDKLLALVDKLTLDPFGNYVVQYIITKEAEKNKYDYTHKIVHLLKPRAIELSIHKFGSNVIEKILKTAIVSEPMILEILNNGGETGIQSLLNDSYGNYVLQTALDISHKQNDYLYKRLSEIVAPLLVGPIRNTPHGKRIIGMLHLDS
Assay: Mg; RNA-MaP; 20 mM Na-HEPES pH 7.4, 30 mM KOAc, 0.75 mM MgCl2, 0.1% Tween-20, 5% glycerol, 0.1 mg/mL BSA, 2 mM DTT; 25 C; 0.0125-409.6 nM protein
Settings: tags: N-His6-TEV cleaved; C-SNAP kept, Cy3B-labelled; label: tethered on chip by stalled RNA polymerase
// return numeric value only (unit: nM, not printed)

BINDER	RECORDED VALUE
UCUCUUUUACACUAUAAGUCUCUU (ssRNA) [Id_ii_S1_P3E.4_K3.3_C3.2_[C-2T]_H3.3_A3.1_F3.1_T3.2_[T9A]_[A10G]]	1520
UCUCUUUGUAUUCUAUCUCUU (ssRNA) [Ib_S1_P4E.1_K4.1_C4.1_H4.1_A4.1_[A6T]_[T7C]_F4.1_T4.1]	2.85

IN: Output measured Kd for this item: Ie_S2_P3E.2_K3.1_C3.2_H3.1_A3.1_[+5T]_F3.1_T3.2 (ssRNA) RNA: UUUGAUUAAUAUGAUAUCGUUCUUUCUCUUGUAUUAUAUAUUCUUUCUCGAUAUCAUAUUAAUCUUU
OUT: 1.52

IN: Output measured Kd for this item: Id_ii_S2_P4E.3_K4.2_C4.2_H4.2_A4.1_F4.1_T4.2_[G10C]_[T11A] (ssRNA) RNA: UUUGAUUAAUAUGAUAUCGUUCUUUCUCUUAUAUAUUACAUUCUUUCUCGAUAUCAUAUUAAUCUUU
OUT: 8.35

IN: Output measured Kd for this item: Id_ii_S2_P4E.2_K4.1_C4.2_[C-2A]_[T-1G]_H4.1_A4.1_F4.1_T4.2_[G10A]_[T11A] (ssRNA) RNA: UUUGAUUAAUAUGAUAUCGUUCUUUCUAGUGUAUAUUAAAUUCUUUCUCGAUAUCAUAUUAAUCUUU
OUT: 1.64

IN: Output measured Kd for this item: Id_ii_S2_P5E.2_K5.1_C5.2_[T-1A]_H5.1_A5.1_F5.1_T5.2_[T11G]_[A12C] (ssRNA) RNA: UUUGAUUAAUAUGAUAUCGUUCUUUCUCAUGUAUUAUUAGCUUCUUUCUCGAUAUCAUAUUAAUCUUU
OUT: 2.55

IN: Output measured Kd for this item: UCUCUUUGUAAACUUUCUCUU (ssRNA) [Ic_S1_P4E.1_K4.1_C4.1_H4.1_A4.1_[T5A]_[T7C]_F4.1_[A9T]_T4.1]
OUT: 24.7

IN: Output measured Kd for this item: Ie_S4_P4E.1_K4.1_C4.1_H4.1_[+1CTCTC]_A4.1_F4.1_T4.1 (ssRNA) RNA: UUUGACAACUGAUCGUUCUUUCUUCUCUCGUAUAUUAUUCUUUCUCGAUCAGUUGUCUUU
OUT: 5.7

IN: Output measured Kd for this item: Ic_S4_P5E.1_K5.1_C5.1_H5.1_A5.1_[T5C]_[T6A]_F5.1_[T8A]_[A10C]_T5.1 (ssRNA) RNA: UUUGACAACUGAUCGUUCUUUCUUGUACAAAUCUUCUUUCUCGAUCAGUUGUCUUU
OUT: 26.1

IN: Output measured Kd for this item: Id_ii_S2_P3E.4_K3.3_C3.2_[C-2A]_[T-1C]_H3.3_A3.1_F3.1_T3.2 (ssRNA) RNA: UUUGAUUAAUAUGAUAUCGUUCUUUCUACACACUAUAUAUUCUUUCUCGAUAUCAUAUUAAUCUUU
OUT: 242

IN: Output measured Kd for this item: UCUCUUUGUAGCUUUUCUCUU (ssRNA) [Ic_S1_P4E.1_K4.1_C4.1_H4.1_A4.1_[T5G]_[A6C]_F4.1_[A9T]_T4.1]
OUT: 361

IN: Output measured Kd for this item: Ie_S4_P3E.2_K3.1_C3.2_H3.1_[+1TCC]_A3.1_F3.1_T3.2 (ssRNA) RNA: UUUGACAACUGAUCGUUCUUUCUCUUUCCGUAUAUAUAUUCUUUCUCGAUCAGUUGUCUUU
OUT: 25.7

IN: Output measured Kd for this item: Id_iii_S2_P5E.9_K5.5_C5.3_H5.1_A5.2_F5.2_T5.2_[A12C] (ssRNA) RNA: UUUGAUUAAUAUGAUAUCGUUCUUUCUUCUUGUAAUAAAAUCUUCUUUCUCGAUAUCAUAUUAAUCUUU
OUT: 146

IN: Output measured Kd for this item: UCUCUUUGUACUAAUAUCUCUU (ssRNA) [Ic_S1_P5E.1_K5.1_C5.1_H5.1_A5.1_[T5C]_F5.1_[T8A]_T5.1]
OUT: 12.5

IN: Output measured Kd for this item: UCUCUUGUUGUAUAUUAGUUCUCUU (ssRNA) [Id_ii_S1_P4E.2_K4.1_C4.2_[C-2G]_H4.1_A4.1_F4.1_T4.2]
OUT: 0.355
